- experiment_notes: Plasma concentration in B6C3F1 mouse at 5 mg/kg, ip at 1 hr
- Format: ADME, organism-based
- Parameters: dose 5 mg/kg, route intraperitoneal
outcome_measure: concentration at 1 h (ng/mL)
Answer with a number only, understood to be in ng/mL.

Query: Form field: reported concentration at 1 h of Nc1scc2c(C(=O)NC3CC3)nn(-c3ccc(F)cc3)c(=O)c12
Response: 610

* * *

- experiment_notes: Drug uptake in B6C3F1 mouse brain at 50 mg/kg, po administered qd in drinking water for 3 days
- Type: ADME, organism-based
- Set-up: dose 50 mg/kg, route oral
- assay_setup: read-out: Drug uptake
outcome_measure: concentration at 72 h (nM)
Answer with a number only, understood to be in nM.

Query: Form field: reported concentration at 72 h of Nc1scc2c(C(=O)NC3CC3)nn(-c3ccc(F)cc3)c(=O)c12
Response: 139

* * *

- Test system: Brain
- experiment_notes: Fraction unbound in mouse brain homogenate at 1 uM after 5 hrs by equilibrium dialysis
- Assay type: ADME, tissue-based
outcome_measure: Fu (%)
Answer with a number only, understood to be in %.

Some molecules with recorded Fu:
Nc1scc2c(C(=O)NC3CC3)nn(-c3ccc(F)cc3)c(=O)c12; 4.3
CC(C)NC(=O)c1nn(-c2ccc(F)cc2)c(=O)c2c(N)scc12; 2.9
Cc1nn(Cc2ccccc2)c(=O)c2c(N)scc12; 5.1

Query: Form field: reported Fu of Nc1scc2c(C(=O)NCC(F)(F)F)nn(-c3ccc(F)cc3)c(=O)c12
Response: 3.2

* * *

- experiment_notes: AUC (0.5 to 16 hrs) in B6C3F1 mouse plasma at 5 mg/kg, ip
- Type: ADME, organism-based
- Set-up: time 0.5-16 hr, dose 5 mg/kg, route intraperitoneal
outcome_measure: AUC(0-t)
The reply should consist of the numeric value with the unit placed after it.

Query: Form field: reported AUC(0-t) of Nc1scc2c(C(=O)NC3CC3)nn(-c3ccc(F)cc3)c(=O)c12
Response: 2350 ng·h/mL

* * *

- Organism: Homo sapiens
- experiment_notes: Inhibition of heparin-induced alexa red-labelled tau K18PL mutant aggregation after 6 hrs by thioflavin-T fluorescence assay relative to control
outcome_measure: Imax
The reply should consist of the numeric value with the unit placed after it.

Some compounds with recorded Imax:
CCOC(=O)c1nn(-c2ccc(Cl)cc2)c(=O)c2c(N)sc(Cl)c12; 88%
Nc1scc2c(C(=O)O)nn(-c3ccccc3Cl)c(=O)c12; 86%
CC(C)NC(=O)c1nn(-c2ccc(F)cc2)c(=O)c2c(N)scc12; 89%

Query: Form field: reported Imax of Nc1scc2c(C(=O)NC3CC3)nn(-c3ccc(C(F)(F)F)cc3)c(=O)c12
Response: 64%

Query: Form field: reported Imax of Cc1nn(C)c(=O)c2c(N)scc12
Response: 82%

Query: Form field: reported Imax of CCOC(=O)C1=NN(c2ccc(Cl)cc2)C(=O)C(C#N)C1C (configuration not stated)
Response: 4.4%

Query: Form field: reported Imax of CCOC(=O)c1nn(-c2ccc(F)cc2)c(=O)c2c(N)scc12
Response: 77%

* * *

- experiment_notes: Oral bioavailability in B6C3F1 mouse at 10 mg/kg at 1 hr
- Assay type: ADME, organism-based
- assay_setup: in vivo
outcome_measure: bioavailability (%)
Answer with a number only, understood to be in %.

Query: Form field: reported bioavailability of Nc1scc2c(C(=O)NC3CC3)nn(-c3ccc(F)cc3)c(=O)c12
Response: 60
